targetSystem: human ACC2 (Homo sapiens (Human), UniProt O00763)
Sequence (O00763 129-2458): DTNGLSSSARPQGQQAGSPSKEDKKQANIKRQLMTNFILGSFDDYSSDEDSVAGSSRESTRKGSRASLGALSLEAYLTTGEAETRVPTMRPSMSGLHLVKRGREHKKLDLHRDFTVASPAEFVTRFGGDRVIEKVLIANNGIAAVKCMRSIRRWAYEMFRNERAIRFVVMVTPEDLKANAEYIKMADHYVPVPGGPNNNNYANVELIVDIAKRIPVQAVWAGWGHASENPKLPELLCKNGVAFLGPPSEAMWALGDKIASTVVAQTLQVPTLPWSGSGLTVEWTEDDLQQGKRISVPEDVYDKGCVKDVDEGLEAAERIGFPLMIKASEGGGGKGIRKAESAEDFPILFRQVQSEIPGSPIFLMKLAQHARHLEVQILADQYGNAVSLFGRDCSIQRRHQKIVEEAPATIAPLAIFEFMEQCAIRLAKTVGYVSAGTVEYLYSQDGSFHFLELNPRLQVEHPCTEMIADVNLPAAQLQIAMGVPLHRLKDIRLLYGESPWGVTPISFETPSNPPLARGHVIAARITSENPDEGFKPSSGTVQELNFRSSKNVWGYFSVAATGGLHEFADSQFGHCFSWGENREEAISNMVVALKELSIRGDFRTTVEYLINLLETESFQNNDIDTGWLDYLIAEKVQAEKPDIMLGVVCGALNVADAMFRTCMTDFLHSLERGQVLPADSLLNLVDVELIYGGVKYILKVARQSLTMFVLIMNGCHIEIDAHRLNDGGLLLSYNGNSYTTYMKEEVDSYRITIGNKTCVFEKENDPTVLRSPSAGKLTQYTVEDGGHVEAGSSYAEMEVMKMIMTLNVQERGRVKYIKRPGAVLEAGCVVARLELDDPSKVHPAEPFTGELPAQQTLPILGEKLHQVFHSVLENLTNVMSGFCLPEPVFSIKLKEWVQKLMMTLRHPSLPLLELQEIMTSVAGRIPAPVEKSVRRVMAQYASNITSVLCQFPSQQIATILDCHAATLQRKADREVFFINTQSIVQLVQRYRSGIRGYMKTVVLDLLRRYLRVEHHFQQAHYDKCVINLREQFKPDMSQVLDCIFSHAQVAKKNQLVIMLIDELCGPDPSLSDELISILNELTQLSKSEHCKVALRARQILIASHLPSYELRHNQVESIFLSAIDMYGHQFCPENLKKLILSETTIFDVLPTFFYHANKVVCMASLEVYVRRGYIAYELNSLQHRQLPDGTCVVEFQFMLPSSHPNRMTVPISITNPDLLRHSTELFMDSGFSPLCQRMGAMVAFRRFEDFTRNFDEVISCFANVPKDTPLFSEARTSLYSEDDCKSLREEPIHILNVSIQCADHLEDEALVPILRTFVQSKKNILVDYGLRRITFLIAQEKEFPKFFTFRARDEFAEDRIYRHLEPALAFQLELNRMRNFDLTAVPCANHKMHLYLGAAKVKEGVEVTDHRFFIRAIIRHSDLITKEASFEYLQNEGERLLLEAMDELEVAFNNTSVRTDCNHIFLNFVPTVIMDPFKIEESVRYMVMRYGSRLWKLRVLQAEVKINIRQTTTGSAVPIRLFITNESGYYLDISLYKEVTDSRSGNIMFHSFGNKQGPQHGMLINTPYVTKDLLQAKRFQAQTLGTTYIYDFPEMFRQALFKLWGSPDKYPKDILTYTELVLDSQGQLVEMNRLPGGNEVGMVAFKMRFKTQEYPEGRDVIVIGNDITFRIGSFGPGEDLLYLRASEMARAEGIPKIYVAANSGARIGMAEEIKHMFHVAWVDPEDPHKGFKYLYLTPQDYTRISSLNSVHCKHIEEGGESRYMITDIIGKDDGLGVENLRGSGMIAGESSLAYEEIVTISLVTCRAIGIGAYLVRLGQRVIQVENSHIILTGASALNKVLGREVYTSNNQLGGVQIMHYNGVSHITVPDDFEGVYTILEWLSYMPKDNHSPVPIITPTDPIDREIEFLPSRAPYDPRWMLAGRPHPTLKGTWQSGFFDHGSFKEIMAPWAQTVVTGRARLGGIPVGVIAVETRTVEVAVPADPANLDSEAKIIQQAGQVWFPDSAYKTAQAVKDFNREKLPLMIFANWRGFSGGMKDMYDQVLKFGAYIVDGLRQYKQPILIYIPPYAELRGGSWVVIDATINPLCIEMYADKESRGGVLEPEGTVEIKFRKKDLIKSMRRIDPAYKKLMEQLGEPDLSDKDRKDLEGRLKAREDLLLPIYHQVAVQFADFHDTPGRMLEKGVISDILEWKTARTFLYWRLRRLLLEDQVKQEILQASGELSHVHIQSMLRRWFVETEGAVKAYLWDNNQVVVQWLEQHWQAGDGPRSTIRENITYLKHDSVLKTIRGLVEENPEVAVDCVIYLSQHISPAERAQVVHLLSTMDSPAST
readoutName: IC50 (nM)

These recorded examples may help you get a feel for the data.
CCC(C)Oc1ccc(C#Cc2ccc(CC(C)NC(C)=O)cc2)cc1 (stereo not drawn) [Example 23.9]; 140
CC(=O)NC(C)Cc1ccc(C#Cc2cccc3ccccc23)cc1 (stereo not drawn) [Example 1.4]; 2000

I: CCCN(C)C(=O)c1cccc(C#Cc2ccc(CC(C)NC(C)=O)cc2)c1 (stereo not drawn) [Example 8.25]
II: CC(=O)NC(C)Cc1ccc(C#Cc2cnc(N3CCC4(CCC4)C3)nc2)cc1 (stereo not drawn) [Example 13.71]
Prompt: Of I versus II , which is the one with smaller reported IC50? When you have decided, please share the label of that item.
Response: II
(II: 210 nM, I: 2400 nM)

P: CC(=O)NC(C)c1ccc(C#Cc2ccc3c(c2)CCO3)cc1 (stereo not drawn) [Example 2.45]
Q: CCOc1ccc(C#Cc2ccc(CC(C)NC(=O)CC#N)cc2)cc1 (stereo not drawn) [Example 4.9]
R: CC(=O)NC(C)Cc1ccc(C#Cc2ccnc(N(C)C3CCOC3)n2)cc1 (stereo not drawn) [Example 11.31]
Prompt: Output the entries ranked by IC50 from maximum down to minimum. To answer, write out the labels according to the requested order.
Response: R, Q, P

I: CC(=O)NC(C)Cc1ccc(C#Cc2ccc(OCC3(N)CC3)c(C)c2)cc1 (stereo not drawn) [Example 2.5]
II: CC(=O)NC(C)Cc1ccc(C#Cc2cnc(NC3CC3)nc2)cc1 (stereo not drawn) [Example 13.78]
Prompt: Of I versus II , which is the one with smaller reported IC50? When you have decided, please share the label of that item.
Response: II

I: CCCNc1ncc(C#Cc2ccc(CC(C)NC(C)=O)cc2)cn1 (stereo not drawn) [Example 13.2]
II: CCN(CC)c1nccc(C#Cc2ccc(CC(C)NC(C)=O)cc2)n1 (stereo not drawn) [Example 11.49]
III: CCNc1nccc(C#Cc2ccc(CC(C)NC(C)=O)cc2)n1 (stereo not drawn) [Example 11.14]
Prompt: Order by IC50, ascending. To answer, write out the labels according to the requested order.
Response: I, II, III

----------
targetSystem: human ACC2 (Homo sapiens (Human), UniProt O00763)
pIC50: −log10 of the molar value.
readoutName: pIC50

These recorded examples may help you get a feel for the data.
CCC(C)Oc1ccc(C#Cc2ccc(CCC(C)NC(C)=O)cc2)cc1 (centres unmarked); 6.85
COc1ncc(C#Cc2ccc(CC(C)NC(C)=O)cc2)c(OC)n1 (centres unmarked); 5.82
CCOc1ccc(C#Cc2ccc(CC(C)NC(=O)c3ncn[nH]3)cc2)cc1 (centres unmarked); 4.61
CCOC(=O)c1cccc(C#Cc2ccc(CC(C)NC(C)=O)cc2)c1 (centres unmarked); 6.41
CC(=O)NC(C)Cc1ccc(C#Cc2ccc3ccccc3c2)cc1 (centres unmarked); 6.06
CC(=O)NC(C)Cc1ccc(C#Cc2ccc(-c3ccccc3)cc2)cc1 (centres unmarked); 6.89
CCOc1ccc(C#Cc2ccc(CC(C)NC(C)=O)cc2)cn1 (centres unmarked); 6.55
C/C=C/C(=O)NC(C)Cc1ccc(C#Cc2ccc(OCC)cc2)cc1 (centres unmarked); 6.66

A: COc1ccc(CNc2ncc(C#Cc3ccc(CC(C)NC(C)=O)cc3)cn2)cc1 (centres unmarked)
B: CC(=O)NC(C)Cc1ccc(C#Cc2cccc(OCc3c[nH]cn3)c2)cc1 (centres unmarked)
C: CCOc1ccc(C#Cc2ccc(CC(C)NC(=O)c3cnc[nH]3)cc2)cc1 (centres unmarked)
Prompt: Output the entries ranked by pIC50 from maximum down to minimum. To answer, write out the labels according to the requested order.
Response: A, B, C
(A: 6.92, B: 5.68, C: 5.33)

A: CC(=O)NC(C)Cc1ccc(C#Cc2ccnc(N(C)C(C)C)n2)cc1 (centres unmarked)
B: CCOc1ccc(C#Cc2ccc(CC(C)NC(=O)c3ocnc3C)cc2)cc1 (centres unmarked)
Prompt: Between A and B , whose recorded pIC50 is greater? When you have decided, please share the label of that item.
Response: B

I: CC(=O)N[C@@H](C)c1ccc(C#Cc2ccc(OCC(C)C)cc2)cc1
II: COC(=O)NC(C)Cc1ccc(C#Cc2cnc(NC3CCCC3)nc2)cc1 (centres unmarked)
III: CC(=O)N[C@@H](C)c1ccc(C#Cc2ccc(OC3CCC3)cc2)cc1
Prompt: Order by pIC50, ascending. To answer, write out the labels according to the requested order.
Response: II, I, III
(II: 6.54, I: 6.85, III: 7.15)
